# credit: PubChem BioAssay (NCI)

For each record, write down the corresponding growth.
Tested on: OVCAR-3 ovarian
assay.explanation: NCI-60 one-dose screen, 48 h (100 = growth as untreated, 0 = no growth, -100 = all killed)
test.conditions: 10 µM unless noted
The panel holds about 83,000 compounds, 20% with a hit somewhere; the sample as a whole holds those more often.
Numbers only, in %.

Here are 3 compounds together with their reported answers.
1. CCn1cc(-c2[nH]c(=S)ncc2-c2ccc(Cl)cc2)c(-c2ccc(Br)cc2)n1 = 97.4
2. O=C(Oc1ccc(Cl)cc1[N+](=O)[O-])Oc1ccc(Cl)cc1[N+](=O)[O-] = 119
3. Cc1nn(-c2ccccc2)c(N2CCOCC2)c1-c1nc2ccc([N+](=O)[O-])cc2[nH]1 = 110

// batch mode: one growth value per listed entry
1. CN(C)c1ccc(N=Nc2ccc3ccccc3c2)cc1
2. Cc1cc(SC#N)ncn1
3. O=S(=O)(NCCNc1nccc(-c2c(-c3cccc(F)c3)nc3occn23)n1)c1ccc(C(F)(F)F)cc1
4. N#CCCc1c[nH]c2ccccc12
5. COc1cc(OC)c(/C=C/C(=O)c2c(N)cc(OC)cc2OC)c(OC)c1
6. Cc1ccc(NC(=O)N[C@@H](Cc2cc(F)cc(F)c2)C(=O)N[C@@H]2C(=O)N3CCC[C@H]3C(=O)N3CCCC[C@H]3C(=O)N[C@@H](C)C(=O)N3C[C@H](C)C[C@H]3C(=O)O[C@H]2C)cc1

A:
1: 88.7; 2: 100; 3: 99.1; 4: 98.7; 5: -45.5; 6: 19.8

====

Test system: NCI-H522 lung
assay.explanation: NCI-60 one-dose screen, 48 h
test.conditions: 10 µM unless noted
About 83,000 compounds went through this panel and 20% of them were active in at least one assay; those are over-represented in the sample as a whole. Activity calls are given as the source filed them. How the source made its calls: active means growth percent below 10; inactive means the rest.
Select the matching outcome among active, inactive

1) COCc1nc2ccccc2[nH]1 = inactive
2) CO[C@H]1CC[C@@]2(C)C(=CC[C@H]3[C@@H]4C[C@H](O)C[C@@]4(C)CC[C@@H]32)C1 = inactive
3) COc1ccc(C(C(=O)O)c2ccc(OC)cc2)cc1 = inactive
4) Cc1cnc([C@]23CC[C@@H](C)[C@H](C)[C@H]2C2=CC[C@@H]4[C@@]5(C)Cc6c([nH]c7ccccc67)C(C)(C)[C@@H]5CC[C@@]4(C)[C@]2(C)CC3)o1 = inactive
5) Cn1cc(-c2noc(C(=O)c3cn(C)c4ncc(Br)cc34)n2)c2ccccc21 = inactive

Q: Can you look up the reported call for `CN(C)c1ccc(N=Nc2ccc3ccccc3c2)cc1` for me?
A: inactive

Q: Same for `Cc1ccc(NCCN2CCCCC2)c2c(=O)c3ccccc3sc12`
A: active

Q: Same for `Oc1c(CNCCNCc2cc(Cl)cc(Cc3ccccc3)c2O)cc(Cl)cc1Cc1ccccc1`
A: inactive

Q: Same for `O=C(Oc1ccc(Cl)cc1[N+](=O)[O-])Oc1ccc(Cl)cc1[N+](=O)[O-]`
A: inactive

Q: Same for `O=C(COc1cccc(/C=C2\Oc3ccccc3C2=O)c1)c1ccc([N+](=O)[O-])cc1`
A: inactive

Q: Same for `C#C[C@]1(O)CC[C@H]2[C@@H]3CC=C4c5nc(Nc6ccc(OC)cc6OC)sc5CC[C@]4(C)[C@H]3CC[C@@]21C`
A: inactive

Q: Same for `CC(=O)O.CC(=O)O.O.[Fe]`
A: inactive

Q: Same for `O=C(N/N=C1\c2ccccc2-c2cccc(C(=O)O)c21)c1ccc(O)cc1`
A: inactive

Q: Same for `C=C(C)[C@@H]1CC[C@]2(COCCC#N)CC[C@]3(C)[C@H](CC[C@@H]4[C@@](C)(CCCNCCC#N)[C@H](C(=C)C)CC[C@]43C)[C@@H]12`
A: active

Q: Same for `Cc1cc2c(C(C)C)c(O)c(O)c(C=NCc3ccoc3)c2c(O)c1-c1c(C)cc2c(C(C)C)c(O)c(O)c(C=NCc3ccco3)c2c1O`
A: inactive

Q: Same for CC1Cc2c(Cl)ncnc2N(C)c2ccccc21 (stereo not drawn)
A: inactive

Q: Same for `Nc1cc(N)c(N=Nc2ccc(S(=O)(=O)O)cc2)cc1N=Nc1ccc(-c2ccc(N=Nc3ccc(O)c(C(=O)O)c3)cc2)cc1`
A: inactive

Q: Same for `CC(C)c1ccc(C(=O)Nc2nc3ccc(O)cc3s2)cc1`
A: inactive

Q: Same for `c1ccc(-c2nnc(-c3c[nH]c4ncccc34)s2)cc1`
A: inactive

Q: Same for `COC(=O)[C@]12CCC(C)(C)C[C@H]1C1=CC[C@@H]3[C@@]4(C)C/C(=C/c5cccnc5)C(=O)C(C)(C)[C@@H]4CC[C@@]3(C)[C@]1(C)CC2`
A: active

Q: Same for O=C1CC(C(F)(F)F)Cc2nc3ccc(Br)cc3cc21 (stereo not drawn)
A: inactive

====

Test system: NCI-H522 lung
assay.explanation: NCI-60 one-dose screen, 48 h
test.conditions: 10 µM unless noted
Compounds without any hit were thinned out: in the full panel of roughly 83,000, 20% have a hit. Active and inactive are the calls of the source. How the source made its calls: active means growth percent below 10; inactive means the rest.
Select the matching outcome among label 1 for active, label 0 for inactive

Worked cases, answers included:
1) CCOC(CNC(=O)c1cccc([N+](=O)[O-])c1)OCC = label 0
2) C=CCCC1(C)NC(=O)NC1=O (stereo not drawn) = label 0
3) C=CCCCCCCCCC(=O)OC(C)C = label 0
4) O=C1NC(=O)C(Cc2ccccc2)(Cc2ccccc2)N1 = label 0
5) Cn1c(=O)c(C#N)c(-c2ccco2)n2c(S(=O)(=O)Cc3ccccc3)nnc12 = label 0

Q: Can you look up the reported call for `Cn1cc(-c2noc(-c3cn(C)c4ncc(F)cc34)n2)c2ccccc21` for me?
A: label 0

Q: Same for `COC(=O)c1cc(O)c2c(c1C(=O)OC)C[C@H]1[C@@H]3CC=C4C[C@@H](O)CC[C@]4(C)[C@H]3CC[C@]21C`
A: label 0

Q: Same for CCOC(=O)c1nn(C2CCCCO2)c2ccc(NC(=O)CN3CCOCC3)cc12 (stereo not drawn)
A: label 0

====

Test system: EKVX NSCLC
assay.explanation: NCI-60 one-dose screen, 48 h
test.conditions: 10 µM unless noted
About 83,000 compounds went through this panel and 20% of them were active in at least one assay; those are over-represented in the sample as a whole. Activity calls are given as the source filed them. Rule for the calls: active = growth percent below 10; inactive = the rest.
Select the matching outcome among active, inactive

Worked cases, answers included:
1. Brc1ccc(-c2nnc3c4[nH]ccc4ncn23)cc1 = inactive
2. COc1cc(/C=C/C(=O)/C=C/c2ccc(-n3ccnc3C)cc2)ccc1O = inactive
3. O=C(NCc1ccccc1)C(Cl)Cl = inactive
4. O=S(=O)(NCc1ccccc1)c1ncnc2nc[nH]c12 = inactive
5. CNc1cc(C(=O)O)nc(NC)n1 = inactive

Switching to the query record.
Q: Can you look up the reported call for `COC(=O)[C@]12CCC(C)(C)C[C@H]1C1=CC[C@@H]3[C@@]4(C)C/C(=C/c5cccnc5)C(=O)C(C)(C)[C@@H]4CC[C@@]3(C)[C@]1(C)CC2` for me?
A: active

====

Tested on: RPMI-8226 leukemia
assay.explanation: NCI-60 one-dose screen, 48 h
test.conditions: 10 µM unless noted
Method: Growth inhibition of the RPMI-8226 human tumor cell line is measured as a screen for anti-cancer activity. Cells are grown in 96 well plates and exposed to the test compound for 48 hours. Compounds are tested at a single concentration, which is 10^-5 M for most compounds. The reported endpoint is percent growth (GI% or GIPRCNT), where numbers from 0 - 100% represent growth inhibition, and numbers from -100% - 0 represent cell death. For example, a value of 40 represents 60% growth inhibition. […]
About 83,000 compounds went through this panel and 20% of them were active in at least one assay; those are over-represented in the sample as a whole. Calls of active or inactive are those of the source. Rule for the calls: active = growth percent below 10; inactive = the rest.
Select the matching outcome among 1 (active), -1 (inactive)

Worked cases, answers included:
1. Cc1ncc(C(=O)Nc2ccc(CN3CCN(C)CC3)c(C(F)(F)F)c2)cc1C#Cc1c(N)ncc2ccc(C#N)cc12 = -1
2. CC1(C)C(=O)/C(=C\c2cccnc2)C[C@]2(C)[C@H]3CC[C@@H]4[C@H]5[C@H](C(=O)/C=C/c6cccnc6)CC[C@]5(C(=O)O)CC[C@@]4(C)[C@]3(C)CC[C@@H]12 = 1
3. NC(=S)Cc1ccccc1 = -1
4. CN(C)c1ccc(N=Nc2ccc3ccccc3c2)cc1 = -1

Q: Can you look up the reported call for `O=C(Nc1cccc(C2=NCCN2)c1)c1cccc(C(=O)Nc2cccc(C3=NCCN3)c2)c1` for me?
A: -1

Q: Same for `COc1cc2c(c(OC)c1OC)-c1ccc(NNC(N)=S)c(=O)cc1[C@@H](NC(C)=O)CC2`
A: 1

Q: Same for `CCOC(=O)c1cc(C#N)n2ncc3ccccc3c12`
A: -1

Q: Same for `CCN(CC)CCCCCCNc1cccc2cc(Br)cnc12`
A: -1

Q: Same for `CCC(Br)(CC)C(=O)c1ccc(OCC(=O)O)c(Cl)c1Cl`
A: -1

Q: Same for O=C1CC(c2ccccc2)Cc2nc3ccc(Br)cc3cc21 (stereo not given)
A: -1
